- subject.of.test: PARP1 (Homo sapiens, UniProt P09874)
- Sequence (P09874 2-1014): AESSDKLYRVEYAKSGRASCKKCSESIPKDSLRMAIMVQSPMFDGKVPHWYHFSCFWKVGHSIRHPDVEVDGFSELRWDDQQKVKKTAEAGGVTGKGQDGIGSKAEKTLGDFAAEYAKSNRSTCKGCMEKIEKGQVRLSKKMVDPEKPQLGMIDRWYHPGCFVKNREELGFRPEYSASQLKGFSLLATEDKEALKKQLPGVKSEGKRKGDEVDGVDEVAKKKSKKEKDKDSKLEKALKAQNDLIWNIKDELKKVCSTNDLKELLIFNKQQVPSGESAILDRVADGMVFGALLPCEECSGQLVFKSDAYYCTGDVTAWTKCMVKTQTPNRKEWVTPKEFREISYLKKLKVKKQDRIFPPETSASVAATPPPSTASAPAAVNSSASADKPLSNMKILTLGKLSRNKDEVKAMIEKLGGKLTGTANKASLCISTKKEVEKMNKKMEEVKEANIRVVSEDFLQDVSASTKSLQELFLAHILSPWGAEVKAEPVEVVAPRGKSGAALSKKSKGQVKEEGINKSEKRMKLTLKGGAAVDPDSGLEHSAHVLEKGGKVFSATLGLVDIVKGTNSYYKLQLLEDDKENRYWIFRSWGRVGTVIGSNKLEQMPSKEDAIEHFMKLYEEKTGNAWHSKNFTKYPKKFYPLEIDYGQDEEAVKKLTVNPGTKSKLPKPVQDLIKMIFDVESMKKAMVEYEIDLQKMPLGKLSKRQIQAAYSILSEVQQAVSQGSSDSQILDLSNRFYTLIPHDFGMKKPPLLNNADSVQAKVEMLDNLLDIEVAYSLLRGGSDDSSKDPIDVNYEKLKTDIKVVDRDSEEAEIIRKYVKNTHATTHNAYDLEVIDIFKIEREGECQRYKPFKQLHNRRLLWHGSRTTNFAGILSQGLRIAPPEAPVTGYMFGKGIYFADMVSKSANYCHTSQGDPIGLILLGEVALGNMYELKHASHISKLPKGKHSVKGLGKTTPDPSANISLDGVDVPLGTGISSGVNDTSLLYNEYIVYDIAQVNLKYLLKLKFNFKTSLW
result.type: pIC50
Numbers only, as −log10 of the molar value.

Reported pIC50 of O=C(c1cc(Cn2c(=O)[nH]c(=O)c3ccccc32)ccc1F)N1CCN(CC(F)(F)F)CC1 : 8.20

---

- subject.of.test: PARP2 (Homo sapiens, UniProt Q9UGN5)
- Sequence (Q9UGN5 whole entry): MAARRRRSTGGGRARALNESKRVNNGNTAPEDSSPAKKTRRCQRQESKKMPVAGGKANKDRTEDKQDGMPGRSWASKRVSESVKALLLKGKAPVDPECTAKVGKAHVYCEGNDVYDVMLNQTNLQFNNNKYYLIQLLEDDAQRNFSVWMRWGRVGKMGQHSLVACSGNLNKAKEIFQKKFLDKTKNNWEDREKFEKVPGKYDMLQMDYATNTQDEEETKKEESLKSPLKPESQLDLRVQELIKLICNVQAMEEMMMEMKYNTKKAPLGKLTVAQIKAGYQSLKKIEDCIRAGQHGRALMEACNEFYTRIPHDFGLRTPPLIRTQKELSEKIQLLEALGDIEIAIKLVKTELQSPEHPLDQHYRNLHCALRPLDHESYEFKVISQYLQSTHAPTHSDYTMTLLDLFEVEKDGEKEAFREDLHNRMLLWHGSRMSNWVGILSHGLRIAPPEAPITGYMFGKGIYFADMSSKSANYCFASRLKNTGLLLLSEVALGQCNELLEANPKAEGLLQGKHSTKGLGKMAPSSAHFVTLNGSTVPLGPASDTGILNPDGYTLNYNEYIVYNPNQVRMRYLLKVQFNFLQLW
result.type: IC50 (nM)
Give bare numbers, in nM.

Note to self: IC50 recorded for O=C(c1cc(Cn2c(=O)[nH]c(=O)c3ccccc32)ccc1F)N1CCN(CC(F)(F)F)CC1 [YHP-836] was 3.62
